// provenance: ChEMBL document CHEMBL1129409

Property: Ki; scope: individual molecules
- tested-on: 5-hydroxytryptamine receptor 1D (Homo sapiens, UniProt P28221)
- Sequence (P28221 whole entry): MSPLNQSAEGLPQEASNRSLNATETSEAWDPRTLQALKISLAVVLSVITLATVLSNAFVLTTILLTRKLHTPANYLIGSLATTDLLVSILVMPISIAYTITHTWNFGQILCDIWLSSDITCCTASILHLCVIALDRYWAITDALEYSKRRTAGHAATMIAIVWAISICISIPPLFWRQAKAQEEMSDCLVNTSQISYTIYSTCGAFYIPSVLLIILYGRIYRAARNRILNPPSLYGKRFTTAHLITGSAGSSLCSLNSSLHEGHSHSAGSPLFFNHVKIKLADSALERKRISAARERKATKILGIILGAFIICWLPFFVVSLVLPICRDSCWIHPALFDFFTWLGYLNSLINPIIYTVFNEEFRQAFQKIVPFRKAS
- assay-text: Compound was tested for binding affinity against cloned human 5-hydroxytryptamine 1D receptor alpha expressed in CHO-K1 cells.
- Assay type: cell-based
reported-endpoint: Ki (nM)

test-smiles	display-unit	numeric-readout
CCCN(CCC)CCc1c[nH]c2ccc(OS(=O)(=O)C(F)(F)F)cc12	nM	190
COc1ccc(CNC(=O)/C=C/c2ccc3[nH]cc(CCN(C)C)c3c2)cc1	nM	0.3
CCN(CC)CCc1c[nH]c2ccc(OS(=O)(=O)C(F)(F)F)cc12	nM	12
NCCc1c[nH]c2ccc(OS(=O)(=O)C(F)(F)F)cc12	nM	2.8
CN(C)CCc1c[nH]c2ccc(OS(=O)(=O)C(F)(F)F)cc12	nM	3.2
